# tgt: T1, Coagulation Factor Xa, from uman plasma (human, UniProt P00742 41-179; P00742 235-488, limits assumed)
# T1 construct: purified natural enzyme, bought; also called FXa
# procedure-summary: enzyme inhibition, pNA substrate
endpoint: % inhibition at 100 µM (%)
Note: unit % is implicit; provide only the numeric part.

binder	% inhibition at 100 µM, %
XCTASIPPQCY (HELM PEPTIDE1{[Nle].C.T.A.S.I.P.P.Q.C.Y.[dK].E}$PEPTIDE1,PEPTIDE1,2:R3-10:R3|PEPTIDE1,PEPTIDE1,1:R1-13:R2$$$V2.0; SMILES CCCC[C@@H]1NC(=O)[C@H](CCC(=O)O)NC(=O)[C@@H](CCCCN)NC(=O)[C@H](Cc2ccc(O)cc2)NC(=O)[C@@H]2CSSC[C@H](NC1=O)C(=O)N[C@@H]([C@@H](C)O)C(=O)N[C@@H](C)C(=O)N[C@@H](CO)C(=O)N[C@@H]([C@@H](C)CC)C(=O)N1CCC[C@H]1C(=O)N1CCC[C@H]1C(=O)N[C@@H](CCC(N)=O)C(=O)N2) [Example 127]	13.3

Now look at this entry.
Exercise: What value of measured % inhibition at 100 µM is listed for XCTASIPPQCY (HELM PEPTIDE1{[Nle].C.T.A.S.I.P.P.Q.C.Y.[dP].F}$PEPTIDE1,PEPTIDE1,2:R3-10:R3|PEPTIDE1,PEPTIDE1,1:R1-13:R2$$$V2.0; SMILES CCCC[C@@H]1NC(=O)[C@H](Cc2ccccc2)NC(=O)[C@H]2CCCN2C(=O)[C@H](Cc2ccc(O)cc2)NC(=O)[C@@H]2CSSC[C@H](NC1=O)C(=O)N[C@@H]([C@@H](C)O)C(=O)N[C@@H](C)C(=O)N[C@@H](CO)C(=O)N[C@@H]([C@@H](C)CC)C(=O)N1CCC[C@H]1C(=O)N1CCC[C@H]1C(=O)N[C@@H](CCC(N)=O)C(=O)N2) [Example 122] ?
Solution: 19.6
